FYI, the data here is from patent US20120021972A1.

Target: human glucagon receptor (human, UniProt P47871 26-477)
Assay: cell-based or functional assay
Non-standard residues stand in square brackets, D forms with d. No end group written: not given here. Bip(2'-Et-4'-OMe) = CCc1cc(OC)ccc1-c1ccc(C[C@H](N)C(=O)O)cc1; 2F‑APPA = 2-amino-5-(2-fluorophenyl)pentanoic acid; αMePhe(2-F) = C[C@](N)(Cc1ccccc1F)C(=O)O; NMeBip(OMe) = N-methylated Bip(OMe); hhPhe = N[C@@H](CCCc1ccccc1)C(=O)O; NMeD = CN[C@@H](CC(=O)O)C(=O)O; aThr = C[C@H](O)[C@H](N)C(=O)O; NMeAPPA = not defined here; CNB = not defined here; Aib = CC(C)(N)C(=O)O
observed_property: inhibition of cAMP production, 10 nM (pmol/ml/µg prt)

Some solved cases for reference:
# binder, unit_abbreviation, inhibition of cAMP production, 10 nM
data = [
    ("H[Aib][CNB]G[aThr][αMePhe(2-F)][aThr]SD[Bip(2'-Et-4'-OMe)][NMeAPPA] (reading uncertain) [Seq. ID. No. 130: H-Aib-(CNB)-G-T(allo)-(α-Me-2F-Phe)-T(allo)-SD-Bip(OMe)-((NMe)(APPA))]", "pmol/ml/µg prt", 3),
    ("Ac-H[Aib][CNB]GT[αMePhe(2-F)]TSD[Bip(2'-Et-4'-OMe)][hhPhe] (reading uncertain) [Seq. ID. No. 205: CH3CO-H-Aib-(CNB)-GT-(α-Me-2F-Phe)-TSD-Bip(OMe)-(APPA)]", "pmol/ml/µg prt", 2),
    ("H[Aib]QG[aThr][αMePhe(2-F)][aThr]SD[Bip(2'-Et-4'-OMe)][hhPhe] (also: thioamide bonds between residues 9-10 and 10-11) [Seq. ID. No. 177: H-Aib-QG-T(allo)-(α-Me-2F-Phe)-T(allo)-SD-(C═S)-Bip(OMe)-(C═S)-(APPA)]", "pmol/ml/µg prt", 0),
]

1 = H[Aib][CNB]G[aThr][αMePhe(2-F)][aThr]S[NMeD][NMeBip(OMe)][NMeAPPA] (reading uncertain) [Seq. ID. No. 154: H-Aib-(CNB)-G-T(allo)-(α-Me-2F-Phe)-T(allo)-S-(NMe)D-((NMe)Bip(OMe))-((NMe)(APPA))]
2 = Ac-H[Aib][CNB]GT[αMePhe(2-F)]TSD[Bip(2'-Et-4'-OMe)][2F‑APPA] (reading uncertain) [Seq. ID. No. 207: CH3CO-H-Aib-(CNB)-GT-(α-Me-2F-Phe)-TSD-Bip(OMe)-(2F-APPA)]
Exam item: Could you tell me which of 1 and 2 has the lower inhibition of cAMP production, 10 nM reading? Identify your pick by its label.
Marked response: 2
(2: 0 pmol/ml/µg prt, 1: 6 pmol/ml/µg prt)
